system: Coptotermes formosanus Shiraki; experiment: Test Example 1: termite-killing test on treated filter paper; type: in vivo; settings: mortality class; 1 ml of a 500 ppm solution on filter paper, seven days after inoculation, triplicate group of 10 insects
experimentalReadout: Termite-killing effect

N#Cc1ccc(CN(NCC(=O)Nc2ccc(OC(F)(F)F)cc2)c2ccccc2)cc1 | D (79-50)
Cc1cccc(C(Cc2ccc(C#N)cc2)=NNC(=O)Nc2ccc(Cl)cc2)c1 | D (79-50)

====

test system: Coptotermes formosanus Shiraki; test: Test Example 1: termite-killing test on treated filter paper; type: in vivo; conditions: mortality class; 1 ml of a 500 ppm solution on filter paper, seven days after inoculation, triplicate group of 10 insects
experimentalReadout: Termite-killing effect

O=C(NN=C(c1ccccc1)C(O)c1ccc(Cl)cc1)Nc1ccc(OC(F)(F)F)cc1 (stereo not shown) [Compound 60] | C (89-80)
N#Cc1ccc(CN(N=CC(=O)Nc2ccc(Cl)cc2)c2cccc(Cl)c2)cc1 | C (89-80)

====

System: Coptotermes formosanus Shiraki
Experiment: Test Example 1: termite-killing test on treated filter paper
Assay type: in vivo
Conditions: mortality class; 1 ml of a 500 ppm solution on filter paper, seven days after inoculation, triplicate group of 10 insects
Protocol: A filter paper was spread in a glass dish having a diameter of 9 cm, onto which was dropped 1 ml of a 500 ppm solution of the ant controller of the present invention. Then, the filter paper was inoculated with Coptotermes formosanus Shiraki. Seven days after the inoculation, percentage of dead insects was investigated, from which mortality was calculated. The test was carried out with triplicate group of 10 insects.
experimentalReadout: Termite-killing effect

O=[N+]([O-])c1ccc(CC(=NNC(=S)Nc2ccc(OC(F)(F)F)cc2)c2ccccc2)cc1 [Compound 13] | A (100)
O=C(NN=C(Cc1ccc([N+](=O)[O-])cc1)c1ccccc1)Nc1ccc(SC(F)(F)F)cc1 [Compound 14] | A (100)
N#Cc1ccc(CC(=NNC(=O)Nc2ccc([S+]([O-])C(F)(F)F)cc2)c2cccc(Cl)c2)cc1 (centres unmarked) [Compound 22] | B (99-90)
N#Cc1ccc(CC(=NNC(=O)Nc2ccc(Cl)cc2)c2cccc(I)c2)cc1 [Compound 36] | B (99-90)

====

test system: Coptotermes formosanus Shiraki; experiment: Test Example 1: termite-killing test on treated filter paper; assay type: in vivo; conditions: mortality class; 1 ml of a 500 ppm solution on filter paper, seven days after inoculation, triplicate group of 10 insects
experimentalReadout: Termite-killing effect

N#Cc1ccc(CC(=NNC(=O)Nc2ccc(S(=O)(=O)C(F)(F)F)cc2)c2ccc(F)cc2)cc1 | A (100)
O=C(CNN(Cc1ccc([N+](=O)[O-])cc1)c1cccc(Cl)c1)Nc1ccc(OC(F)(F)F)cc1 | C (89-80)
N#Cc1ccc(CC(NNC(=S)Nc2ccc(OC(F)(F)F)cc2)c2cccc(Cl)c2)cc1 (stereo not shown) | A (100)
O=C(CNN(Cc1ccc(Cl)cc1)c1cccc(Cl)c1)Nc1ccc(OC(F)(F)F)cc1 | A (100)
CC(C(=NNC(=O)Nc1ccc(OC(F)(F)F)cc1)c1cccc(Cl)c1)c1ccc(C#N)cc1 (stereo not shown) | A (100)
Cc1cccc(N(Cc2ccc(C#N)cc2)NCC(=O)Nc2ccc(Cl)cc2)c1 | A (100)

Query :: Would you kindly share the measured Termite-killing effect for `N#Cc1ccc(CC(=NNC(=O)Nc2ccc(Cl)cc2)c2cccc(C(F)(F)F)c2)cc1` ?
Result :: D (79-50)

Query :: Queued: O=C(NNC(Cc1ccc(Cl)cc1)c1cccc(F)c1)Nc1ccc(OC(F)(F)F)cc1 (racemic)
Result :: B (99-90)

Query :: Queued: `N#Cc1ccc(CN(NCC(=O)Nc2ccc(Cl)cc2)c2cccc(C(F)(F)F)c2)cc1`
Result :: A (100)

Query :: Queued: N#Cc1ccc(CC(NNC(=O)Nc2ccc(OC(F)(F)F)cc2)c2cccc(C(F)(F)F)c2)cc1 (stereo not shown) [Compound 96]
Result :: A (100)

Query :: Queued: `O=C(NN=C(Cc1ccccc1)c1cccc(F)c1)Nc1ccc(Cl)cc1`
Result :: A (100)

Query :: Queued: CC(C(=NNC(=S)Nc1ccc(OC(F)(F)F)cc1)c1ccccc1)c1ccccc1 (racemic)
Result :: C (89-80)

Query :: Queued: N#Cc1ccc(CC(NNC(=O)Nc2ccc(OC(F)(F)F)cc2)c2cccc(F)c2)cc1 (stereo not shown)
Result :: B (99-90)

Query :: Queued: O=C(NNC(Cc1ccc(Cl)cc1)c1ccccc1)Nc1ccc(OC(F)(F)F)cc1 (racemic)
Result :: A (100)

Query :: Queued: N#Cc1cccc(CC(NNC(=O)Nc2ccc(OC(F)(F)F)cc2)c2ccccc2)c1 (stereo not shown) [Compound 112]
Result :: A (100)

Query :: Queued: N#Cc1ccc(CC(NNC(=O)Nc2ccc(OC(F)(F)F)cc2)c2cccc(Br)c2)cc1 (stereo not shown)
Result :: A (100)

Query :: Queued: N#Cc1ccc(CC(NNC(=O)Nc2ccc(SC(F)(F)F)cc2)c2cccc(C(F)(F)F)c2)cc1 (stereo not shown)
Result :: A (100)

Query :: Queued: `N#Cc1ccc(CN(N=CC(=O)Nc2ccc(Cl)cc2)c2ccccc2)cc1`
Result :: D (79-50)

Query :: Queued: N#Cc1ccc(C(O)C(=NNC(=O)Nc2ccc(Cl)cc2)c2ccccc2)cc1 (racemic)
Result :: A (100)

Query :: Queued: `N#Cc1ccc(CC(=NNC(=O)Nc2ccc(Cl)cc2)c2cccc(Br)c2)cc1`
Result :: A (100)

Query :: Queued: `Cc1cccc(C(Cc2ccc(C#N)cc2)=NNC(=O)Nc2ccc(OC(F)(F)F)cc2)c1`
Result :: A (100)

Query :: Queued: `O=C(NN=C(Cc1ccc(Cl)cc1)c1cccc(F)c1)Nc1ccc(OC(F)(F)F)cc1`
Result :: C (89-80)

Query :: Queued: COC(C(=NNC(=O)Nc1ccc(OC(F)(F)F)cc1)c1ccccc1)c1ccccc1 (racemic)
Result :: A (100)

Query :: Queued: CC(C(=NNC(=O)Nc1ccc(OC(F)(F)F)cc1)c1ccccc1)c1ccccc1 (mixture of isomers) [Compound 50]
Result :: A (100)

Query :: Queued: O=C(NNC(Cc1ccc(F)cc1)c1ccccc1)Nc1ccc(OC(F)(F)F)cc1 (stereo not shown)
Result :: C (89-80)

Query :: Queued: COC(C(=NNC(=O)Nc1ccc(Cl)cc1)c1ccccc1)c1ccccc1 (racemic)
Result :: A (100)

Query :: Queued: `O=C(C=NN(Cc1ccc([N+](=O)[O-])cc1)c1cccc(Cl)c1)Nc1ccc(Cl)cc1`
Result :: A (100)

Query :: Queued: N#Cc1ccc(CC(NNC(=O)Nc2ccc(OC(F)(F)F)cc2)c2cccc(C(F)(F)F)c2)cc1 (single isomer, unassigned) [Compound 118]
Result :: D (79-50)

Query :: Queued: CC(=O)OC(C(=NNC(=O)Nc1ccc(OC(F)(F)F)cc1)c1ccccc1)c1ccccc1 (racemic)
Result :: A (100)

Query :: Queued: N#Cc1ccc(CC(=NNC(=O)Nc2ccc([S+]([O-])C(F)(F)F)cc2)c2cccc(C(F)(F)F)c2)cc1 (stereo not shown)
Result :: A (100)

Query :: Queued: N#Cc1ccc(CC(NNC(=O)Nc2ccc(OC(F)(F)F)cc2)c2cccc(C(F)(F)F)c2)cc1 (single isomer, unassigned) [Compound 117]
Result :: A (100)

====

test system: Coptotermes formosanus Shiraki; test: Test Example 1: termite-killing test on treated filter paper; type: in vivo; conditions: mortality class; 1 ml of a 500 ppm solution on filter paper, seven days after inoculation, triplicate group of 10 insects
experimentalReadout: Termite-killing effect

Answered examples (5):
Cc1cccc(N(Cc2ccc(C#N)cc2)NCC(=O)Nc2ccc(OC(F)(F)F)cc2)c1 | B (99-90)
N#Cc1ccc(CN(N=CC(=O)Nc2ccc(OC(F)(F)F)cc2)c2cccc(F)c2)cc1 | B (99-90)
N#Cc1ccc(CC(=NNC(=O)Nc2ccc([S+]([O-])C(F)(F)F)cc2)c2cccc(F)c2)cc1 (centres unmarked) | A (100)
N#Cc1ccc(CC(=NNC(=O)Nc2ccc(Cl)cc2)c2ccccc2)cc1 | A (100)
N#Cc1ccc(CC(=NNC(=O)Nc2ccc(OC(F)(F)F)cc2)c2cccc(C(F)(F)F)c2)cc1 [Compound 44] | C (89-80)

Query :: Would you kindly share the measured Termite-killing effect for `N#Cc1ccc(CC(=NNC(=S)Nc2ccc(Cl)cc2)c2ccccc2)cc1` ?
Result :: A (100)

Query :: Queued: `O=C(CNN(Cc1ccccc1)c1ccccc1)Nc1ccc(OC(F)(F)F)cc1`
Result :: C (89-80)

Query :: Queued: `Cc1cccc(N(Cc2ccc(C#N)cc2)N=CC(=O)Nc2ccc(Cl)cc2)c1`
Result :: A (100)

====

test system: Coptotermes formosanus Shiraki; assay: Test Example 1: termite-killing test on treated filter paper; type: in vivo; conditions: mortality class; 1 ml of a 500 ppm solution on filter paper, seven days after inoculation, triplicate group of 10 insects
experimentalReadout: Termite-killing effect

O=[N+]([O-])c1ccc(CC(=NNC(=S)Nc2ccc(Cl)cc2)c2ccccc2)cc1 | A (100)
O=C(NNC(Cc1ccc([N+](=O)[O-])cc1)c1ccccc1)Nc1ccc(OC(F)(F)F)cc1 (racemic) | A (100)
CC(C)COC(C(=NNC(=O)Nc1ccc(OC(F)(F)F)cc1)c1ccccc1)c1ccccc1 (racemic) | A (100)
